# Read-out: Bcl-2 (BID) gene, BID (gene 637)
# Measurement description: LTEA_HepaRG_BID: Life Technologies and Expression Analysis (LTEA) Assay for Bcl-2 (BID) gene using HepaRG (AID 2283476)
# Measurement parameters: mRNA level, 48 h; actives raise or lower the signal
Calls of active or inactive are those of the source. Rule for the calls: active = hit-call score of the fitted dose curve at least 0.9, where 1 is the maximum; inactive = score below 0.9.
Give one outcome, nothing more. List: TRUE (active), FALSE (inactive)

Input line: Per the records of this test, what outcome belongs to COc1cccc(-c2ccc(/C=C\CN3CCCCCC3)cc2Cl)c1 ?
Output line: FALSE

Input line: Per the records of this test, what outcome belongs to COC(=O)c1c(Cl)c(Cl)c(C(=O)OC)c(Cl)c1Cl ?
Output line: FALSE

Input line: Per the records of this test, what outcome belongs to Cn1c(=O)c2c(ncn2C)n(C)c1=O ?
Output line: FALSE

Input line: Per the records of this test, what outcome belongs to CC1=CC(=O)CC(C)(C)C1 ?
Output line: FALSE

Input line: Per the records of this test, what outcome belongs to COC(=O)CC(=O)OC ?
Output line: FALSE

Input line: Per the records of this test, what outcome belongs to O=C(NS(=O)(=O)/C=C/c1ccccc1)c1ccc(F)cc1Cl ?
Output line: FALSE

Input line: Per the records of this test, what outcome belongs to CC(C)=CCC/C(C)=C\CO ?
Output line: FALSE

Input line: Per the records of this test, what outcome belongs to CCCCCCc1ccc(O)cc1O ?
Output line: FALSE

Input line: Per the records of this test, what outcome belongs to CC[C@H](C)C(=O)O[C@H]1C[C@@H](C)C=C2C=C[C@H](C)[C@H](CC[C@@H]3C[C@@H](O)CC(=O)O3)[C@H]21 ?
Output line: FALSE

Input line: Per the records of this test, what outcome belongs to O=C(OC[C@H]1O[C@@H](OC(=O)c2cc(O)c(O)c(OC(=O)c3cc(O)c(O)c(O)c3)c2)[C@H](OC(=O)c2cc(O)c(O)c(OC(=O)c3cc(O)c(O)c(O)c3)c2)[C@@H](OC(=O)c2cc(O)c(O)c(OC(=O)c3cc(O)c(O)c(O)c3)c2)[C@@H]1OC(=O)c1cc(O)c(O)c(OC(=O)c2cc(O)c(O)c(O)c2)c1)c1cc(O)c(O)c(OC(=O)c2cc(O)c(O)c(O)c2)c1 ?
Output line: TRUE

Input line: Per the records of this test, what outcome belongs to COCCOCCOCCOC ?
Output line: FALSE

Input line: Per the records of this test, what outcome belongs to CCOCCO ?
Output line: FALSE

Input line: Per the records of this test, what outcome belongs to CCOc1cccc(-n2cc(C(=O)N3CCN(c4cc(C(=O)O)c5ccccc5c4)CC3)nc2-c2ccc(C)cc2)c1 ?
Output line: TRUE

Input line: Per the records of this test, what outcome belongs to Cc1ccc(S(=O)(=O)O)cc1C ?
Output line: FALSE

Input line: Per the records of this test, what outcome belongs to O=C(O)CC(O)C(=O)O (stereo not given) ?
Output line: FALSE

Input line: Per the records of this test, what outcome belongs to CCC(C)(C)C(=O)O[C@H]1C[C@@H](C)C=C2C=C[C@H](C)[C@H](CC[C@@H]3C[C@@H](O)CC(=O)O3)[C@H]21 ?
Output line: FALSE

Input line: Per the records of this test, what outcome belongs to Cc1ccc(O)cc1 ?
Output line: FALSE

Input line: Per the records of this test, what outcome belongs to CCOCCOCCOCCO ?
Output line: FALSE

Input line: Per the records of this test, what outcome belongs to CC(C)=CCCC(C)CCO (stereo not given) ?
Output line: FALSE

Input line: Per the records of this test, what outcome belongs to CCCC(=O)OCC ?
Output line: FALSE

Input line: Per the records of this test, what outcome belongs to CN(C)c1ccc(N=NS(=O)(=O)O)cc1 ?
Output line: FALSE

Input line: Per the records of this test, what outcome belongs to CC(C)=CCCC(C)=CC=O ?
Output line: FALSE

Input line: Per the records of this test, what outcome belongs to CC(=O)OCCC(C)C ?
Output line: FALSE

Input line: Per the records of this test, what outcome belongs to O=c1n(CC2CO2)c(=O)n(CC2CO2)c(=O)n1CC1CO1 (stereo not given) ?
Output line: FALSE

Input line: Per the records of this test, what outcome belongs to Cc1[nH]cnc1C[C@H]1CCc2c(C)c3ccccc3n2C1=O ?
Output line: FALSE
